Tested on: Exiguobacterium undea (DSM14481)
Assay: Lysozyme activity turbidity assay (optical density drop at 540 nm)
Assay type: biochemical, Exiguobacterium undae
Conditions: OD drop assay
measurementName: Lysozyme activity against Exiguobacterium undea (in words)

INSERT INTO measurements (molecule, endpointresult) VALUES
  ('SEQ ID NO: 303: mature GH24 lysozyme from Geomyces auratus (protein, listed as Geomyces auratus, mat_peptide (1)..(250), mature GH24 lysozyme from Geomyces auratus) AFPITGSTVNCRTGPGTSHGVKTSYKKGHEVTVSCQTGGTSVNGNSIWDKTSDGCYVADYYVKTGSSGYVKPKCGSSSGGGGGSSCGAPKSNAATVNLIAEFEGFVSHVYTDATGHPTVGYGHLCSNSKCSGIGYSIPISKANAKKLLAKDMAIAEKCITAMINKSRTLNLNQYGALVSWAFNEGCGAAKSSTLIKRINNGEKPSTVIPQELPKWVYGGSSVLPGLVRRRNAEIALAKKATSSKALPAHC', 'good activity'),
  ('SEQ ID NO: 306: mature GH24 lysozyme from Ilyonectria rufa (protein, listed as Ilyonectria rufa, mat_peptide (1)..(240), mature GH24 lysozyme from Ilyonectria rufa) YKITGDNVNCRSGPGTSYSVKRSFKKGTDVTLSCQTTGENVLGTSIWDKTSYGCYVSDYYVKTGSSGFVVKKCGTCGAPKSNAATVNLISDFEGFRANIYKDAAGYPTVGYGHLCSNSRCTDVPYSIPLSKANGKNLLATDMTKFEKCITAMVSSSVTLNKNQYGALVSWAFNMGCGATKTSTLIKRLNQGQNVNTVLSTELPKWVYAGGKKLNGLVRRRNAEIALAKKKTTEKALPNKC', 'good activity');

Taken from patent US12324447B2.
